// provenance: patent EP4786466A1

system: MCF7 breast cancer cell lines; experiment: Cell viability analysis, WST-8 assay, MCF7; conditions: Homo sapiens, MCF7, 72 h, read-out: Cell viability (%) WST-8, MCF7 (1 µM), compound 1 µM, 72 hours
property.measured: viability at 1 µM (%)
Supply the numeric figure in %, leaving out any unit text.

Measured viability at 1 µM, "N#CCc1ccc(Nc2nc(Nc3ccccc3OCc3ccccc3)c3ccccc3n2)cc1" : 45.4

Measured viability at 1 µM, Cc1cc(Nc2nc(N3CC4CC3CN4CC(C)C)nc3ccccc23)n[nH]1 (stereo not shown) [compound 27e] : 88.3

Measured viability at 1 µM, "N#CCc1ccc(Nc2nc(Nc3cc(Br)[nH]n3)c3ccccc3n2)cc1" : 105

Measured viability at 1 µM, "Cc1cc(Cl)ccc1C1=CCN(c2nc(Nc3cc(C4CC4)[nH]n3)c3ccccc3n2)CC1" : 47.8

Measured viability at 1 µM, "O=C(O)c1ccc(Nc2nc(Nc3cc(C4CC4)[nH]n3)c3ccccc3n2)cc1" : 98.8

More entries:
Measured viability at 1 µM, "CC(C)(C)OC(=O)c1ccc(Nc2nc(Nc3cc(C4CC4)[nH]n3)c3ccccc3n2)cc1" : 100

Measured viability at 1 µM, "c1ccc2c(Nc3cc(C4CC4)[nH]n3)nc(Nc3ccc4cn[nH]c4c3)nc2c1" : 44.2

Measured viability at 1 µM, "CNC(=O)c1ccc(Nc2nc(Nc3cc(C4CC4)[nH]n3)c3ccccc3n2)cc1" : 72.8

Measured viability at 1 µM, CN(C)S(=O)(=O)c1ccc(Nc2nc(Nc3ccc(C(F)(F)F)cc3)nc3ccccc23)cc1 [compound 25c] : 86.4

Measured viability at 1 µM, "Clc1nc(Nc2cc(C3CC3)[nH]n2)c2ccccc2n1" : 106
